- Tested on: KYSE-520 (Esophageal Squamous Cell Carcinoma)
- Method Notes: combination Emax (second highest fraction inhibited in the dose matrix, 72 h); higher = more inhibition; extreme values may be limits of the assay
Consider the following compounds and their measured combination Emax readings.
Give the figure only, with no unit attached.

Compound | Measured Property | Quantitative Readout
CN(CCO)CC[C@H](CSc1ccccc1)Nc1ccc(S(=O)(=O)NC(=O)c2ccc(N3CCC([C@@H](O)c4ccccc4-c4ccc(Cl)cc4)CC3)cc2)cc1S(=O)(=O)C(F)(F)F [AZD4320] + Cc1cc2ncnn2cc1Nc1ncc2c(n1)n(C1CCOCC1)c(=O)n2C [AZD7648] (first compound max 1 µM, 7x7, partner max 10 µM) | combination Emax | 0.23
CS(=O)(=O)CCNCc1ccc(-c2ccc3ncnc(Nc4ccc(OCc5cccc(F)c5)c(Cl)c4)c3c2)o1 [Lapatinib] + C[C@@H](Oc1cc(-c2cnn(C3CCNCC3)c2)cnc1N)c1c(Cl)ccc(F)c1Cl [Crizotinib] (first compound max 10 µM, 7x7, partner max 10 µM) | combination Emax | 0.945
CN(C)CCCOc1ccc(-c2ccc3ncc4c(c3c2)n(C2CCOCC2)c(=O)n4C)cn1 [AZD0156] + C[C@@H]1COCCN1C2=NC(=NC(=C2)C3(CC3)[S@](=N)(=O)C)C4=C5C=CNC5=NC=C4 [AZD6738] (first compound max 1 µM, 7x7, partner max 10 µM) | combination Emax | 0.603
Cc1c2c(nn1C)CSCc1cc(n(C)n1)CSc1cc(c3ccccc3c1)OCCCc1c(C(=O)O)n(C)c3c-2c(Cl)ccc13 [AZD5991] + C[C@@H](Nc1cc(F)cc(F)c1)c1cc(C(=O)N(C)C)cc2c(=O)cc(N3CCOCC3)oc12 [AZD8186] (first compound max 1 µM, 7x7, partner max 3 µM) | combination Emax | 0.412
COc1cccc(OCCCN)c1-c1cc(Nc2cnc(C#N)cn2)n[nH]1 [Prexasertib] + CCc1c2c(nc3ccc(O)cc13)-c1cc3c(c(=O)n1C2)COC(=O)[C@]3(O)CC [SN-38] (first compound max 1 µM, 7x7, partner max 0.3 µM) | combination Emax | 0.856

Fetch value of combination Emax on KYSE-520 (Esophageal Squamous Cell Carcinoma) for CC(=O)Nc1cccc(-n2c(=O)n(C3CC3)c(=O)c3c(Nc4ccc(I)cc4F)n(C)c(=O)c(C)c32)c1 [Trametinib] + Cc1nc(-c2cn3c(n2)-c2ccc(-c4cnn(C(C)(C)C(N)=O)c4)cc2OCC3)n(C(C)C)n1 [Taselisib] (first compound max 1 µM, 7x7, partner max 10 µM) .
0.846

Fetch value of combination Emax on KYSE-520 (Esophageal Squamous Cell Carcinoma) for COc1cccc(OCCCN)c1-c1cc(Nc2cnc(C#N)cn2)n[nH]1 [Prexasertib] + C=CCn1c(=O)c2cnc(Nc3ccc(N4CCN(C)CC4)cc3)nc2n1-c1cccc(C(C)(C)O)n1 [AZD1775] (first compound max 1 µM, partner max 1 µM) .
0.735

* * *

- Tested on: NCI-H2085 (Non-Small Cell Lung Carcinoma)
- Method Notes: combination Emax (second highest fraction inhibited in the dose matrix, 72 h); higher = more inhibition; extreme values may be limits of the assay
Consider the following molecules and their measured combination Emax readings.
Give the figure only, with no unit attached.

Example results:
Molecule | Quantitative Readout
CN(CCO)CC[C@H](CSc1ccccc1)Nc1ccc(S(=O)(=O)NC(=O)c2ccc(N3CCC([C@@H](O)c4ccccc4-c4ccc(Cl)cc4)CC3)cc2)cc1S(=O)(=O)C(F)(F)F [AZD4320] + CCN(CCO)CCCOc1ccc2c(Nc3cc(CC(=O)Nc4cccc(F)c4)[nH]n3)ncnc2c1 [AZD2811] (first compound max 1 µM, 7x7, partner max 1 µM) | 0.692
Cc1c2c(nn1C)CSCc1cc(n(C)n1)CSc1cc(c3ccccc3c1)OCCCc1c(C(=O)O)n(C)c3c-2c(Cl)ccc13 [AZD5991] + Cc1cc2ncnn2cc1Nc1ncc2c(n1)n(C1CCOCC1)c(=O)n2C [AZD7648] (first compound max 1 µM, 7x7, partner max 10 µM) | 0.244
COc1cccc(OCCCN)c1-c1cc(Nc2cnc(C#N)cn2)n[nH]1 [Prexasertib] + C[C@@H]1COCCN1C2=NC(=NC(=C2)C3(CC3)[S@](=N)(=O)C)C4=C5C=CNC5=NC=C4 [AZD6738] (first compound max 1 µM, 7x7, partner max 10 µM) | 0.872
Cn1cnc2c(F)c(Nc3ccc(Br)cc3Cl)c(C(=O)NOCCO)cc21 [Selumetinib] + C[C@@H]1COCCN1C2=NC(=NC(=C2)C3(CC3)[S@](=N)(=O)C)C4=C5C=CNC5=NC=C4 [AZD6738] (first compound max 10 µM, 7x7, partner max 10 µM) | 0.35
O=C(c1cc(Cc2n[nH]c(=O)c3ccccc23)ccc1F)N1CCN(C(=O)C2CC2)CC1 [Olaparib] + Cc1c2c(nn1C)CSCc1cc(n(C)n1)CSc1cc(c3ccccc3c1)OCCCc1c(C(=O)O)n(C)c3c-2c(Cl)ccc13 [AZD5991] (first compound max 10 µM, 7x7, partner max 1 µM) | 0.0831

Fill in combination Emax for record C=CCn1c(=O)c2cnc(Nc3ccc(N4CCN(C)CC4)cc3)nc2n1-c1cccc(C(C)(C)O)n1 [AZD1775] + O=C(c1cc(Cc2n[nH]c(=O)c3ccccc23)ccc1F)N1CCN(C(=O)C2CC2)CC1 [Olaparib] (first compound max 1 µM, partner max 10 µM)
0.566

Fill in combination Emax for record NC1(C(=O)N[C@@H](CCO)c2ccc(Cl)cc2)CCN(c2ncnc3[nH]ccc23)CC1 [Capivasertib] + C[C@@H]1COCCN1C2=NC(=NC(=C2)C3(CC3)[S@](=N)(=O)C)C4=C5C=CNC5=NC=C4 [AZD6738] (first compound max 10 µM, 7x7, partner max 10 µM)
0.504
